These entries and their values trace back to patent US6825230B2.

System: ANKA strain of P. berghei
Assay: Single dose STI in vivo screen in infected mice
Set-up: species or system Plasmodium berghei
Details: single 10 mg/kg sc in 3% ethanol and 7% Tween 80; untreated 6-7 days
Items are presented alongside their recorded Survival (days) 10 mg/kg sc.
Give the value, in units of days, as a plain number.

Molecule: O=C1c2ccccc2C(=O)N1C[C@H]1CC[C@]2(CC1)OOC1(O2)C2CC3CC(C2)CC1C3 (some centres unmarked)
Survival (days) 10 mg/kg sc: 9.0
//
Molecule: Fc1ccc(NC2CCC3(CC2)OOC2(O3)C3CC4CC(C3)CC2C4)cc1 (centres unmarked)
Survival (days) 10 mg/kg sc: 25
//
Molecule: O=C(O)c1ccc(C[C@H]2CC[C@]3(CC2)OOC2(O3)C3CC4CC(C3)CC2C4)cc1 (some centres unmarked)
Survival (days) 10 mg/kg sc: 7.7
//
Molecule: O=C(O)CCC[C@H]1CC[C@]2(CC1)OOC1(O2)C2CC3CC(C2)CC1C3 (some centres unmarked)
Survival (days) 10 mg/kg sc: 8.0

Next:
In: Find the measured Survival (days) 10 mg/kg sc of O=C(OC[C@H]1CC[C@]2(CC1)OOC1(O2)C2CC3CC(C2)CC1C3)n1ccnc1 (some centres unmarked) with ANKA strain of P. berghei as test system.
Out: 8.7

* * *

System: ANKA strain of P. berghei
Test: Single dose STI in vivo screen in infected mice
Parameters: species or system Plasmodium berghei
Conditions: single 10 mg/kg sc in 3% ethanol and 7% Tween 80; untreated 6-7 days
Quantity Kind: Survival (days) 10 mg/kg sc
Give the value, in units of days, as a plain number.

Recorded Survival (days) 10 mg/kg sc, per entry:
Molecule: O=[N+]([O-])c1ccc(N2CCC3(CC2)OOC2(O3)C3CC4CC(C3)CC2C4)cc1 (centres unmarked) [OZ151]
Survival (days) 10 mg/kg sc: 11.0

Molecule: NC[C@H]1CC[C@@]2(CC1)OOC1(O2)C2CC3CC(C2)CC1C3 (some centres unmarked) [OZ269]
Survival (days) 10 mg/kg sc: 9.0

Molecule: CC(C)(CO)NC(=O)[C@H]1CC[C@]2(CC1)OOC1(O2)C2CC3CC(C2)CC1C3 (some centres unmarked) [OZ129]
Survival (days) 10 mg/kg sc: 5.7

In: Tell me Survival (days) 10 mg/kg sc reported for O=C(O)c1ccccc1C(=O)N1CCC2(CC1)OOC1(O2)C2CC3CC(C2)CC1C3 (centres unmarked) [OZ132]
Out: 6.3

In: Tell me Survival (days) 10 mg/kg sc reported for c1csc(NC[C@H]2CC[C@]3(CC2)OOC2(O3)C3CC4CC(C3)CC2C4)n1 (some centres unmarked) [OZ252]
Out: 9.3

* * *

Test system: chloroquine-resistant K1 strain of P. falciparum
Test: In vitro antimalarial semiautomated microdilution assay ([3H]-hypoxanthine incorporation), K1 strain
Type: cell-based, Plasmodium falciparum
Settings: Plasmodium falciparum, K1, 72 h, read-out: IC50 (ng/ml) K1, chloroquine-resistant K1 strain, 72 h incubation
Quantity Kind: IC50

Recorded IC50, per entry:
Compound: O=C(N1CCCC1)N1CCC2(CC1)OOC1(O2)C2CC3CC(C2)CC1C3 (centres unmarked)
Quantity Kind: IC50
Reading: 3.9 ng/mL

Compound: CCCCCCCCS(=O)(=O)N1CCC2(CC1)OOC1(O2)C2CC3CC(C2)CC1C3 (centres unmarked)
Quantity Kind: IC50
Reading: 11 ng/mL

Compound: CN(C)C(=O)N[C@H]1CC[C@]2(CC1)OOC1(O2)C2CC3CC(C2)CC1C3 (some centres unmarked)
Quantity Kind: IC50
Reading: 4 ng/mL

Compound: O=C(C[C@H]1CC[C@]2(CC1)OOC1(O2)C2CC3CC(C2)CC1C3)N1CCOCC1 (some centres unmarked)
Quantity Kind: IC50
Reading: 1.7 ng/mL

Compound: C1C2CC3CC1CC(C2)C31OOC2(CCC3(CC2)OOC2(O3)C3CC4CC(C3)CC2C4)O1 (centres unmarked)
Quantity Kind: IC50
Reading: 15 ng/mL

Compound: Cc1ccc(S(=O)(=O)O)cc1.NC[C@H]1CC[C@]2(CC1)OOC1(O2)C2CC3CC(C2)CC1C3 (some centres unmarked)
Quantity Kind: IC50
Reading: 0.33 ng/mL

Compound: O=C1COC2(CCC3(CC2)OOC2(O3)C3CC4CC(C3)CC2C4)OC1 (centres unmarked)
Quantity Kind: IC50
Reading: 0.62 ng/mL

Next:
In: Tell me IC50 reported for O=C(O)C1CCN(C(=O)C[C@H]2CC[C@]3(CC2)OO[C@]2(O3)C3CC4CC(C3)CC2C4)CC1
Out: 19 ng/mL
